tested on: K. pneumoniae 156319 expressing KPC-3; test: Broth microdilution MIC assay, partner meropenem; format: cell-based; details: Klebsiella pneumoniae, read-out: MIC of Exemplary Compounds in presence of fixed β-lactams, Fixed Mero, K.P. 156319 KPC-3
Reported MIC values for the following compounds.

Field: example entries. Status: answers known.
molecule_smiles: O=C(O)c1cccc2c1OB(O)[C@@H](NC(=O)C(F)(F)c1ccccc1)C2
MIC: 8 to 32 mg/L

molecule_smiles: O=C(O)c1cccc2c1OB(O)[C@@H](NC(=O)C1(c3ccccc3)CC1)C2
MIC: 8 to 32 mg/L

molecule_smiles: O=C(O)c1cccc2c1OB(O)[C@@H](NC(=O)c1c[nH]c3ncccc13)C2
MIC: > 32 mg/L

molecule_smiles: NCc1cc(CN)cc(C(=O)N[C@H]2Cc3cccc(C(=O)O)c3OB2O)c1
MIC: > 32 mg/L

molecule_smiles: O=C(N[C@H]1Cc2cccc(C(=O)O)c2OB1O)c1ccc(-c2ccccn2)cc1
MIC: 8 to 32 mg/L

Requested read-out: MIC. Entry: O=C(N[C@H]1Cc2cccc(C(=O)O)c2OB1O)c1cnc2[nH]ccc2c1
< 4 mg/L

Please do the same for O=C(Cc1ccc2c(c1)CNCC2)N[C@H]1Cc2cccc(C(=O)O)c2OB1O as well.
< 4 mg/L

Please do the same for NCCNc1ccc(CC(=O)N[C@H]2Cc3cccc(C(=O)O)c3OB2O)cn1 as well.
< 4 mg/L

---

system: P. aeruginosa Ps296 expressing VIM-2; assay: Broth microdilution MIC assay, partner meropenem; assay type: cell-based; settings: Pseudomonas aeruginosa, read-out: MIC of Exemplary Compounds in presence of fixed β-lactams, Fixed Mero, P. aerug. Ps296 VIM-2
measure_name: MIC

Field: example entries. Status: answers known.
compound: O=C(O)c1cccc2c1OB(O)[C@@H](NC(=O)c1c[nH]c3ncccc13)C2 [Example 8]
measure_name: MIC
value: < 4 µg/mL
--
compound: NCCn1ccc2c(C(=O)N[C@H]3Cc4cccc(C(=O)O)c4OB3O)cccc21 [Example 42]
measure_name: MIC
value: < 4 µg/mL
--
compound: O=C(N[C@H]1Cc2cccc(C(=O)O)c2OB1O)c1ccc2nc[nH]c2c1 [Example 34]
measure_name: MIC
value: < 4 µg/mL

Requested read-out: MIC. Entry: O=C(O)c1cccc2c1OB(O)[C@@H](NC(=O)C(F)(F)c1ccccc1)C2 [Example 2]
8 to 32 µg/mL

---

Reported MIC values for the following compounds.
test system: P. aeruginosa Ps296 expressing VIM-2; test: Broth microdilution MIC assay, partner meropenem; type: cell-based; conditions: Pseudomonas aeruginosa, read-out: MIC of Exemplary Compounds in presence of fixed β-lactams, Fixed Mero, P. aerug. Ps296 VIM-2

Field: example entries. Status: answers known.
molecule_smiles: O=C(O)c1cccc2c1OB(O)[C@@H](NC(=O)C1(c3ccccc3)CC1)C2
system_tested: P. aeruginosa Ps296 expressing VIM-2
value: 8 to 32 µg/mL
//
molecule_smiles: NCCOc1ccc(CC(=O)N[C@H]2Cc3cccc(C(=O)O)c3OB2O)cc1O
system_tested: P. aeruginosa Ps296 expressing VIM-2
value: < 4 µg/mL
//
molecule_smiles: NCCN1Cc2ccc(CC(=O)N[C@H]3Cc4cccc(C(=O)O)c4OB3O)cc2C1
system_tested: P. aeruginosa Ps296 expressing VIM-2
value: < 4 µg/mL
//
molecule_smiles: O=C(N[C@H]1Cc2cccc(C(=O)O)c2OB1O)c1ccc(-c2ccccn2)cc1
system_tested: P. aeruginosa Ps296 expressing VIM-2
value: 8 to 32 µg/mL
//
molecule_smiles: CN(C)Cc1ccc(C(=O)N[C@H]2Cc3cccc(C(=O)O)c3OB2O)cc1NC(=O)[C@@H](N)CN
system_tested: P. aeruginosa Ps296 expressing VIM-2
value: > 32 µg/mL

Tell me reported MIC for CN1CCc2cc(C(=O)N[C@H]3Cc4cccc(C(=O)O)c4OB3O)ccc2C1 , tested with P. aeruginosa Ps296 expressing VIM-2.
> 32 µg/mL

Please do the same for N=C(N)NCc1ccc(C(=O)N[C@H]2Cc3cccc(C(=O)O)c3OB2O)cc1CNC(=N)N as well.
< 4 µg/mL

Please do the same for CN(C)Cc1ccc(C(=O)N[C@H]2Cc3cccc(C(=O)O)c3OB2O)cc1N as well.
< 4 µg/mL

Please do the same for CNCc1ccc(C(=O)N[C@H]2Cc3cccc(C(=O)O)c3OB2O)cc1CNC as well.
< 4 µg/mL

Please do the same for NCCN1Cc2ccc(C(=O)N[C@H]3Cc4cccc(C(=O)O)c4OB3O)cc2C1 as well.
> 32 µg/mL

Please do the same for O=C(N[C@H]1Cc2cccc(C(=O)O)c2OB1O)c1ccc2[nH]ccc2c1 as well.
8 to 32 µg/mL

Please do the same for O=C(N[C@H]1Cc2cccc(C(=O)O)c2OB1O)c1ccc(-c2ccncc2)cc1 as well.
> 32 µg/mL

Please do the same for N=C(N)NCc1cc(CNC(=N)N)cc(C(=O)N[C@H]2Cc3cccc(C(=O)O)c3OB2O)c1 as well.
< 4 µg/mL

Please do the same for NCc1ccc(CC(=O)N[C@H]2Cc3cccc(C(=O)O)c3OB2O)cc1CN as well.
< 4 µg/mL

Please do the same for CN1CCc2c(C(=O)N[C@H]3Cc4cccc(C(=O)O)c4OB3O)csc2C1 as well.
> 32 µg/mL

Please do the same for NCCNc1ccc(CC(=O)N[C@H]2Cc3cccc(C(=O)O)c3OB2O)c[n+]1[O-] as well.
< 4 µg/mL

Please do the same for NCc1cc(CN)cc(C(=O)N[C@H]2Cc3cccc(C(=O)O)c3OB2O)c1 as well.
> 32 µg/mL

Please do the same for O=C(O)c1ccccc1C(=O)N[C@H]1Cc2cccc(C(=O)O)c2OB1O as well.
> 32 µg/mL

Please do the same for O=C(Cc1ccc2cc[nH]c2c1)N[C@H]1Cc2cccc(C(=O)O)c2OB1O as well.
< 4 µg/mL

Please do the same for NCCNC(=O)c1ccccc1C(=O)N[C@H]1Cc2cccc(C(=O)O)c2OB1O as well.
< 4 µg/mL

Please do the same for O=C1Cc2cc(C(=O)N[C@H]3Cc4cccc(C(=O)O)c4OB3O)ccc2N1 as well.
< 4 µg/mL

Please do the same for NCCOc1ccc(C(=O)N[C@H]2Cc3cccc(C(=O)O)c3OB2O)cc1O as well.
< 4 µg/mL

Please do the same for O=C(N[C@H]1Cc2cccc(C(=O)O)c2OB1O)c1ccc(-c2ncc[nH]2)cc1 as well.
8 to 32 µg/mL

Please do the same for NCCOc1ccc(CC(=O)N[C@H]2Cc3cccc(C(=O)O)c3OB2O)cc1OCCN as well.
< 4 µg/mL

Please do the same for O=C(N[C@H]1Cc2cccc(C(=O)O)c2OB1O)c1ccc2c(c1)CN(Cc1cccnc1)C2 as well.
> 32 µg/mL
